# ASSAY_PROTOCOL: viability loss with induced miR-34 in A549 – imaging, A549 dox-inducible miR-34, nuclei and caspase counts, primary screen (AID 1347080); further: test concentration not given here
# CONDITION_CONTEXT: A549 miR-34 inducible, Hoechst nuclei count, 48 h; active compounds read low; cell number ratio, induced over uninduced
PARAMETER_MEASURED: fold change
Give your answer as a number; write no unit.

{"COMPOUND": "COc1ccc(Nc2ncnc3ccc(OC)cc23)cc1", "fold change": 0.902}
{"COMPOUND": "C#Cc1cccc(Nc2ncnc3cc(OC)c(OCCCCCCC(=O)NO)cc23)c1", "fold change": 0.901}
{"COMPOUND": "CCCCCCCCCCCCCCCC(=O)NC[C@@H](C)O", "fold change": 1.02}
{"COMPOUND": "COC(=O)[C@H]1C2C[C@H]3c4[nH]c5ccccc5c4CCN3C[C@H]2CC[C@@H]1O (stereo partly specified)", "fold change": 0.968}
{"COMPOUND": "COc1ccc2c(c1)c(CC(=O)SC[C@H](NC(C)=O)C(=O)OCCCCO[N+](=O)[O-])c(C)n2C(=O)c1ccc(Cl)cc1", "fold change": 1.08}

Which measured fold change value corresponds to O=C(O)CCC/C=C\C[C@H]1C(=O)C=C[C@@H]1/C=C/[C@@H](O)CCc1ccccc1 ?
0.944
